Please provide measured Binding selectivity ratio (Bcl-XL Ki/Bcl-2 Ki) for the entries that follow.
Tested on: GST-Bcl-2
protocol: TR-FRET binding assay, Bcl-2
cond: TR-FRET Ki values

Use the examples below as a reference point.
CC(C)C[C@@H](CO)Nc1ccc(S(=O)(=O)NC(=O)c2ccc(N3CCN(CC4=C(c5ccc(Cl)cc5)CC(C)(C)CC4)CC3)cc2Oc2ccc3[nH]ccc3c2)cc1[N+](=O)[O-] [EXAMPLE 369] | >0.8
CC1(C)CCC(CN2CCN(c3ccc(C(=O)NS(=O)(=O)c4cc(F)c(NCC5CCOCC5)cc4Cl)c(Oc4ccc5[nH]ccc5c4)c3)CC2)=C(c2ccc(Cl)cc2)C1 [EXAMPLE 379] | >2.6

Value sought: Binding selectivity ratio (Bcl-XL Ki/Bcl-2 Ki), system GST-Bcl-2, item O=C(NS(=O)(=O)c1ccc(NCC2CCOCC2)c([N+](=O)[O-])c1)c1ccc(N2CCN(Cc3cc(CN4CCCC4)ccc3-c3ccc(Cl)cc3)CC2)cc1Oc1cccc2[nH]ccc12 [Example 24] . Result: >3402.1

* * *

Field: Binding selectivity ratio (Bcl-XL Ki/Bcl-2 Ki). Provide a value for each of the molecules that follow.
System: GST-Bcl-2
protocol: TR-FRET binding assay, Bcl-2
cond: TR-FRET Ki values

COCCNc1ccc(S(=O)(=O)NC(=O)c2ccc(N3CCN(CC4=C(c5ccc(Cl)cc5)CC(C)(C)CC4)CC3)cc2Oc2ccc3[nH]ccc3c2)cc1S(=O)(=O)C(F)(F)F | >190.7
O=C(NS(=O)(=O)c1ccc(NCCCN2CCOCC2)cc1)c1ccc(N2CCN(Cc3ccccc3-c3ccc(Cl)cc3)CC2)cc1Oc1ccccc1 | >5.9
CC1(C)CCC(CN2CCN(c3ccc(C(=O)NS(=O)(=O)c4ccc(NN5CCN(CCO)CC5)c([N+](=O)[O-])c4)c(Oc4ccc5[nH]ccc5c4)c3)CC2)=C(c2ccc(Cl)cc2)C1 | >2714.3
C[C@H](Nc1ccc(S(=O)(=O)NC(=O)c2ccc(N3CCN(CC4=C(c5ccc(Cl)cc5)CC(C)(C)CC4)CC3)cc2Oc2ccc3[nH]ccc3c2)cc1[N+](=O)[O-])c1ccccc1 | >10.5
CC1(C)CCC(CN2CCN(c3ccc(C(=O)NS(=O)(=O)c4ccc(NCC5CCS(=O)(=O)C5)c([N+](=O)[O-])c4)c(Oc4ccc5[nH]ccc5c4)c3)CC2)=C(c2ccc(Cl)cc2)C1 (centres unmarked) | >6832.4
O=C(NS(=O)(=O)c1ccc(OCC2CCOCC2)c([N+](=O)[O-])c1)c1ccc(N2CCN(Cc3ccc(C(F)(F)F)cc3-c3ccc(Cl)cc3)CC2)cc1Oc1ccc2[nH]ccc2c1 | >86.9
CN(C)CC[C@H](Nc1ccc(S(=O)(=O)NC(=O)c2ccc(N3CCN(Cc4ccccc4-c4ccc(Cl)cc4)CC3)cc2Oc2ccccc2)cc1[N+](=O)[O-])c1cccs1 | >386.0

Here is another molecule to look at.
For the molecule CC1(C)CN(c2ccc(S(=O)(=O)NC(=O)c3ccc(N4CCN(Cc5ccccc5-c5ccc(Cl)cc5)CC4)cc3Oc3ccccc3)cc2)C1=O , the measured Binding selectivity ratio (Bcl-XL Ki/Bcl-2 Ki) on GST-Bcl-2 was >6.4

* * *

Tested on: GST-Bcl-2
protocol: TR-FRET binding assay, Bcl-2
cond: TR-FRET Ki values
Give Binding selectivity ratio (Bcl-XL Ki/Bcl-2 Ki) for every item shown.

// known answers, use as guide
CN1CCC(Nc2ccc(S(=O)(=O)NC(=O)c3ccc(N4CCN(CC5=C(c6ccc(Cl)cc6)CC(C)(C)C5)CC4)cc3Oc3cccc4[nH]ccc34)cc2[N+](=O)[O-])CC1 | >12.2
CC1(C)CCC(CN2CCN(c3ccc(C(=O)NS(=O)(=O)c4ccc(OCCC5CCOCC5)c([N+](=O)[O-])c4)c(Oc4cccc5[nH]ccc45)c3)CC2)=C(c2ccc(Cl)cc2)C1 | >215.3
O=C(NS(=O)(=O)c1ccc(NCC2CCOCC2)c(S(=O)(=O)C(F)(F)F)c1)c1ccc(N2CCN(Cc3cc(OCCN4CCOCC4)ccc3-c3ccc(Cl)cc3)CC2)cc1Oc1ccccc1 | >287.1
O=C(NS(=O)(=O)c1ccc(NCC2CCOCC2)c([N+](=O)[O-])c1)c1ccc(N2CCN(Cc3ccccc3-c3ccc(Cl)cc3)CC2)cc1Oc1ccc2c(c1)CCN2 | >139.7
C[C@H](c1ccccc1-c1ccc(Cl)cc1)N1CCN(c2ccc(C(=O)NS(=O)(=O)c3ccc(NCC4CCOCC4)c([N+](=O)[O-])c3)c(Oc3cccc4[nH]ccc34)c2)CC1 | >84.2

Summary for this molecule, O=C(NS(=O)(=O)c1ccc(NC2CCN(C3CCOCC3)CC2)c([N+](=O)[O-])c1)c1ccc(N2CCN(CC3=C(c4ccc(Cl)cc4)CCC(O)C3)CC2)cc1Oc1ccc2[nH]ccc2c1 (stereo not drawn) : Binding selectivity ratio (Bcl-XL Ki/Bcl-2 Ki) is >348.2
